- assay: Cytotoxicity against mouse NIH/3T3 cells after 72 hrs by MTT assay
- Format: cell-based
- condition.context: NIH3T3, 72 h
Assign IC50 to each entry below.
Write the number in µM without appending the unit.

Given the compound COc1ccc(/C=C/C(=O)CC(C)=O)cc1OC , what is its reported IC50?
18.1

What would you report for Cc1cc(/C=C/c2ccc(O)c(O)c2)on1 ?
26.2

What would you report for CC(=O)CC(=O)/C=C/c1ccc(O)cc1 ?
18.9

What would you report for COc1ccc(/C=C/c2cc(C)no2)cc1OC ?
93.2

What would you report for COc1ccc(/C=C/c2cc(C)n[nH]2)cc1OC ?
68.4

What would you report for COc1cc(/C=C/c2cc(C)[nH]n2)ccc1O ?
66.3
